Experiment: amyloid nucleation score (Sup35N fusion, yeast selection) (log enrichment); library NNK2; higher = more nucleation; inactive = no reads after selection;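 further: zero at mode of non-aggregating sequences after 7 days selection at 30°C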
Classification field. Basis: amyloid nucleation score. Definitions: band 1 = under -0.2, band 2 = from -0.2 up to 0.6, band 3 = 0.6 and over

>  <Substance>
VHCDYVIELGPGWWVRNWGS

>  <Class assignment>
band 2

$$$$
>  <Substance>
AILSNVEVLYTRFRIKSCKL

>  <Class assignment>
band 1

$$$$
>  <Substance>
RIVVYMSLCQCL

>  <Class assignment>
band 3

$$$$
>  <Substance>
SLSRLVLECNGKSVRHEKM

>  <Class assignment>
band 2

$$$$
>  <Substance>
ENGIICR

>  <Class assignment>
band 2

$$$$

query: Form field 'band' for TTMSTGARGLSRCLSVVFRR
result: band 3

query: Same thing, different substance: QVLIIPLWKNGLRTIIRWL
result: band 2

query: Same thing, different substance: PFRKDVTLPLIFVLHVLQPD
result: band 2

query: Same thing, different substance: EALKVWERLCRLCSFWSYRK
result: band 3

query: Same thing, different substance: LIRQMYMGRFYAVNRENH
result: band 1

query: Same thing, different substance: RSSLIIALCWFR
result: band 3

query: Same thing, different substance: LNVPGSAMNGRSRNPSF
result: band 1

query: Same thing, different substance: SLQSSYEYINPRSLLHCSHL
result: band 1
